biological target: SARS-COV-2 RBD extracellular domain expressed with a C-terminal mouse IgG2a Fc (SARS-CoV-2); test: Biacore SPR, mAb captured on anti-hFc, 37 C
measured-endpoint: koff
Answer by giving the amount and then stating its unit.

Recorded koff, per entry:
{"binder": "mAb14247 (antibody, V domains shown) VH: QITLKESGPTLVKPTQTLTLTCTFSGFSLSTSAVGVGWIRQPPGKALEWLALIYWDDDKRYSPSLKSRLTITKDTSKNQLVLTMTNVDPVDTATYYCAHHTIQLIFDYWGQGTLVTVSS VL: QSALTQPASVSGSPGQSITISCTATSSDVGNYNYVSWYQQHPGKAPKLMIYEVSNRPSGVSNRFSGSKSGNTASLTISGLQAEDEADYYCSSYTSSSTPLVFGGGTKLTVLG", "endpoint-value": "0.00015 s⁻¹"}
{"binder": "mAb14256 (antibody, V domains shown) VH: QVQLQESGPGLVKPSETLSLTCTVSGGSISSHYWSWIRQPPGKGLEWIGYIYYSGSSNYNPSLKSRVTISVDTSKNQFSLKLNSVTAADTAVYYCARHYDILTGFDWFDPWGQGTLVTVSS VL: QSVLTQPPSVSGAPGQRVTISCTGSSSNIGTHYDVHWYQQLPGTAPKLLIYGNSNRPSGVPDRFSGSKSGTSASLAITGLQAEDEADYYCQSFDNSLTAPYVFGTGTKVTVLG", "endpoint-value": "0.000473 s⁻¹"}

Entry mAb15157 (antibody, V domains shown) VH: EVQLVESGGALVQPGGSLRLSCAASGFPFTIYAMTWVRQAPGKGLEWVSVITGSGDSTYYADSVKGRFTISRDNSKNTLYLQMNSLRAEDTAVYYCVKTGEGFFYYYYGMDVWGQGTTVTVSS VL: QSVLTQPPSVSAAPGQKVTISCSGSSSNIGNSYISWYQQLPGTAPKLLIYVNNKRPSGIPDRFSGSKSGTSATLGITGLQTGDEADYYCGTWDSSLSAGVFGSGTKVTVLG ; koff = 0.000107 s⁻¹
